# System: Wolbachia pipientis
# assayNotes: Anti-Wolbachia Cell-Based Screen
# Type: functional
# Set-up: scale not given: in the data most compounds retested in dose-response had high values
# measurementSetup: 5 µM
Screen size: about 48,000 compounds; about 13,000 (27%) showed an effect of 50% or more. Some of the results follow.
measuredMetric: Percent Effect (%)
Give the value in % but do not write % after it.

# count of solved cases: 5
CCC[C@@H]1CN(C(=O)Cc2sc(C)nc2C)C[C@H]1C(=O)O :: 9.333
COC(=O)N1CCCCC1C(=O)N1CCN(c2ncccc2C)CC1 (stereo not drawn) :: -6.544
CS(=O)(=O)N1CCN(Cc2c(O)ccc3oc4c(c23)CCCC4)CC1 :: -24.14
CCNC(=O)N(Cc1ccoc1)C1CCCCC1 :: -0.3193
O=C(CN1CCNCC1)N1CC[C@@H](c2ccc3ccccc3c2)[C@H](O)C1 :: 6.521

## Input // fetch Percent Effect given entry `CC(C)NC(=O)[C@@H]1C[C@H](N)CN1C(=O)c1cc2ccccc2[nH]c1=O`
## Output -13.02

## Input // fetch Percent Effect given entry `Cn1ccc2ccc(C(=O)N3CCC[C@H]3C(=O)N3CCOCC3)cc21`
## Output 12.68

## Input // fetch Percent Effect given entry `CNc1cncc(C2CCN(C(=O)c3cnco3)CC2)n1`
## Output 87.6

## Input // fetch Percent Effect given entry COC(C)C(=O)Nc1cc(C(=O)N2CCSCC2)ccc1C (stereo not drawn)
## Output -22.96

## Input // fetch Percent Effect given entry `Cc1noc(C)c1CC(=O)N1CCC(c2ccn3nccc3n2)CC1`
## Output 116.9

## Input // fetch Percent Effect given entry CCSc1ccc(C(=O)N2CCCCC2C(=O)N2CCCC2)cn1 (stereo not drawn)
## Output 151.8

## Input // fetch Percent Effect given entry CCSc1ccc(NC(=O)N2CCCC2c2ccncc2)cn1 (stereo not drawn)
## Output -0.7424

---

# Test system: Wolbachia pipientis
# assayNotes: Anti-Wolbachia Cell-Based Screen
# Format: functional
# Parameters: scale not given: in the data most compounds retested in dose-response had high values
# measurementSetup: 5 µM
In all, about 48,000 compounds went through this assay and about 13,000 (27%) showed an effect of 50% or more. The list shows a part of the results.
Measured Percent Effect, listed per entry.
Give the value in % but do not write % after it.

Cc1noc([C@]23COC[C@H]2CN(C(=O)C2CCOCC2)C3)n1 :: -8.72

## Input // fetch Percent Effect given entry `Cc1noc([C@]23COC[C@H]2CN(C(=O)N2CCCC2)C3)n1`
## Output 106.7

---

# Tested on: Wolbachia pipientis
# assayNotes: Anti-Wolbachia Cell-Based Screen
# Assay type: functional
# Design: scale not given: in the data most compounds retested in dose-response had high values
# measurementSetup: 5 µM
About 13,000 (27%) of roughly 48,000 compounds showed an effect of 50% or more. The list shows a part of the results.
measuredMetric: Percent Effect (%)
Give the value in % but do not write % after it.

CNc1cc(C(=O)N2CCC3(CC2)Nc2ccccc2NC3=O)ccn1 :: 27.99

## Input // fetch Percent Effect given entry `CC(C)(O)CCc1cccc(C(=O)NCc2nccs2)c1`
## Output 1.829

## Input // fetch Percent Effect given entry `CNc1cc(C(=O)NCCC2=CSC3=NCCCN23)ccn1`
## Output 99.62
